# Tested on: 945468-187-T-J2-PDC spheroids viability;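 further: spheroids exposed to compounds for seven days before reading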
# PROTOCOL_SUMMARY: Anticancer human tumor 945468-187-T-J2-PDC patient-derived rectal carcinoma cell line growth inhibition [PI3K]
# CONDITIONS: second compound 10 µM; first compound 0.000316 µM; hits give low values; spheroids with HUVEC and MSC
# Description: Combinatorial screen of targeted agents with the PI3K inhibitors inavolisib, alpelisib, duvelisib, and copanlisib in multi-cell type tumor spheroids A high-throughput screen of multi-cell type tumor spheroids was designed to identify active combinations of targeted small molecules and PI3K pathway inhibitors. […] Compounds. […] If the clinical Cmax for an agent had not been determined, the highest concentration tested was 10 microM. […]
Reported viability, T/C by item:
Just the number please, in %, no unit attached.

CC(C)n1nc(-c2ccc3oc(N)nc3c2)c2c(N)ncnc21 + Cc1nc(NC(=O)N2CCCC2C(N)=O)sc1-c1ccnc(C(C)(C)C(F)(F)F)c1 ... 77.5
CC(C)n1nc(-c2ccc3oc(N)nc3c2)c2c(N)ncnc21 + CC(Nc1ncnc2nc[nH]c12)c1cc2cccc(Cl)c2c(=O)n1-c1ccccc1 ... 109

QUERY: Give the reported viability, T/C for this compound. Cn1ncnc1[C@H]1c2n[nH]c(=O)c3cc(F)cc(c23)N[C@@H]1c1ccc(F)cc1 + CC(Nc1ncnc2nc[nH]c12)c1cc2cccc(Cl)c2c(=O)n1-c1ccccc1
RESULT: 117
